Entries and their PBM binding z-score
# System: RARg:RXRa (NR concentration 270 nM, RXRa partner concentration 90 nM)
# TEST SUMMARY: PBM binding z-score (relative to random genomic background probes); higher = stronger binding; sequences stand for … in GC…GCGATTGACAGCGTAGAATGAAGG
TEST READOUT: PBM binding z-score

[
  {
    "SEQUENCE CONTENT": "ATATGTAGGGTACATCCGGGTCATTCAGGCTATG",
    "SYSTEM TESTED": "RARg:RXRa (NR concentration 270 nM, RXRa partner concentration 90 nM)",
    "VAL": 2.44
  },
  {
    "SEQUENCE CONTENT": "TGTTGTAGATCAGCAGGTTAAGAAAGCTGGCCAA",
    "SYSTEM TESTED": "RARg:RXRa (NR concentration 270 nM, RXRa partner concentration 90 nM)",
    "VAL": -0.266
  },
  {
    "SEQUENCE CONTENT": "CGAACTAGGTCATTTACAGGACAGTGAATAGTAA",
    "SYSTEM TESTED": "RARg:RXRa (NR concentration 270 nM, RXRa partner concentration 90 nM)",
    "VAL": 4.82
  },
  {
    "SEQUENCE CONTENT": "TCATATTGGTAAATGCTAGGTGAAAGTCCGATCT",
    "SYSTEM TESTED": "RARg:RXRa (NR concentration 270 nM, RXRa partner concentration 90 nM)",
    "VAL": 0.03
  },
  {
    "SEQUENCE CONTENT": "TCTCGGAGGACACGAAGGTCTGAGCTTTCCAGAG",
    "SYSTEM TESTED": "RARg:RXRa (NR concentration 270 nM, RXRa partner concentration 90 nM)",
    "VAL": 0.331
  },
  {
    "SEQUENCE CONTENT": "TCTAATAGTTGAAGGGCAACCGACGAGTCCGTTT",
    "SYSTEM TESTED": "RARg:RXRa (NR concentration 270 nM, RXRa partner concentration 90 nM)",
    "VAL": 0.639
  },
  {
    "SEQUENCE CONTENT": "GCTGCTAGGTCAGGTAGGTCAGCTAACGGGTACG",
    "SYSTEM TESTED": "RARg:RXRa (NR concentration 270 nM, RXRa partner concentration 90 nM)",
    "VAL": 4.09
  },
  {
    "SEQUENCE CONTENT": "CCTACTGGGCCAAGAAGGTCATTGATGCCGATAA",
    "SYSTEM TESTED": "RARg:RXRa (NR concentration 270 nM, RXRa partner concentration 90 nM)",
    "VAL": 2.94
  },
  {
    "SEQUENCE CONTENT": "TCATATAGGTAATCCAGGTGAAAGTCGGCATCTA",
    "SYSTEM TESTED": "RARg:RXRa (NR concentration 270 nM, RXRa partner concentration 90 nM)",
    "VAL": 0.501
  },
  {
    "SEQUENCE CONTENT": "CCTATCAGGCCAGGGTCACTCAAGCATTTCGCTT",
    "SYSTEM TESTED": "RARg:RXRa (NR concentration 270 nM, RXRa partner concentration 90 nM)",
    "VAL": 3.19
  },
  {
    "SEQUENCE CONTENT": "CCTACTGGGGCAAGGTTACCATAACGCACAGCCA",
    "SYSTEM TESTED": "RARg:RXRa (NR concentration 270 nM, RXRa partner concentration 90 nM)",
    "VAL": 1.22
  },
  {
    "SEQUENCE CONTENT": "CGAACTAGGGCAAGGACAGTGAATCTCCGCACGC",
    "SYSTEM TESTED": "RARg:RXRa (NR concentration 270 nM, RXRa partner concentration 90 nM)",
    "VAL": 0.544
  },
  {
    "SEQUENCE CONTENT": "TCTTGTAGATCAATAGAGGTTAAGAATGTGCGCT",
    "SYSTEM TESTED": "RARg:RXRa (NR concentration 270 nM, RXRa partner concentration 90 nM)",
    "VAL": 0.814
  },
  {
    "SEQUENCE CONTENT": "CCTGCTAGGCCAATGGTCAGCTAAAGCAGCTCGC",
    "SYSTEM TESTED": "RARg:RXRa (NR concentration 270 nM, RXRa partner concentration 90 nM)",
    "VAL": -0.216
  },
  {
    "SEQUENCE CONTENT": "TTACCAAGGTGAAATGTCGTTGATGCACGCCTTG",
    "SYSTEM TESTED": "RARg:RXRa (NR concentration 270 nM, RXRa partner concentration 90 nM)",
    "VAL": 0.864
  },
  {
    "SEQUENCE CONTENT": "GCTCGGAGCACAAGGTCAGAGCTTTGTCCGTAGA",
    "SYSTEM TESTED": "RARg:RXRa (NR concentration 270 nM, RXRa partner concentration 90 nM)",
    "VAL": 2.63
  },
  {
    "SEQUENCE CONTENT": "CAAACTAGGTCCCCGGAAGGTCAAAGTCCGCATG",
    "SYSTEM TESTED": "RARg:RXRa (NR concentration 270 nM, RXRa partner concentration 90 nM)",
    "VAL": 4.15
  },
  {
    "SEQUENCE CONTENT": "TTACCAGGGTGAAAGGTCGTTGATGCACGCCTTG",
    "SYSTEM TESTED": "RARg:RXRa (NR concentration 270 nM, RXRa partner concentration 90 nM)",
    "VAL": 3.82
  },
  {
    "SEQUENCE CONTENT": "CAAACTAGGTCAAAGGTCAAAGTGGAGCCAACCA",
    "SYSTEM TESTED": "RARg:RXRa (NR concentration 270 nM, RXRa partner concentration 90 nM)",
    "VAL": 8.91
  },
  {
    "SEQUENCE CONTENT": "CCTACTGGGCCATCATGTCATTGATATCAACGTT",
    "SYSTEM TESTED": "RARg:RXRa (NR concentration 270 nM, RXRa partner concentration 90 nM)",
    "VAL": 0.216
  },
  {
    "SEQUENCE CONTENT": "TTACCAAGGTGATCTGAGGTCGTTGATCCAACTC",
    "SYSTEM TESTED": "RARg:RXRa (NR concentration 270 nM, RXRa partner concentration 90 nM)",
    "VAL": 0.881
  },
  {
    "SEQUENCE CONTENT": "AGAACAAGGGCACGCTGAGTTGATAGCAGAGTAG",
    "SYSTEM TESTED": "RARg:RXRa (NR concentration 270 nM, RXRa partner concentration 90 nM)",
    "VAL": 1.6
  },
  {
    "SEQUENCE CONTENT": "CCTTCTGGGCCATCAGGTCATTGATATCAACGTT",
    "SYSTEM TESTED": "RARg:RXRa (NR concentration 270 nM, RXRa partner concentration 90 nM)",
    "VAL": 2.3
  },
  {
    "SEQUENCE CONTENT": "ACTAGCAGGCCAAGTTGGGGTCACTCAAACAAAG",
    "SYSTEM TESTED": "RARg:RXRa (NR concentration 270 nM, RXRa partner concentration 90 nM)",
    "VAL": 4.97
  }
]
